# System: human fibroblast cells (MRC-5)
# Assay Text: MTT test with human fibroblast cells
# Format: cell-based
# Settings: MRC5, 72 h, read-out: EC50 ± SEM, MRC-5
List of EC50 values.
Assay Readout: EC50 (µM)

[Se]=C(Nc1ccccc1)NC12CC3CC(CC(C3)C1)C2 [4a, 1-(Adamantan-1-yl)-3-phenylselenourea] :: 3.38
[Se]=C(NCc1ccccc1)NCC12CC3CC(CC(C3)C1)C2 [5b] :: 3.04

----------
# Assay Text: Solubility in sodium phosphate buffer
# Assay type: physicochemical
# Settings: aqueous buffer, kinetic from dmso stock; sodium phosphate buffer (pH 7.4, 0.1 M) containing 1% DMSO
List of solubility values.
Assay Readout: solubility (µM)

CC(=O)N1CCC(NC(=O)NC23CC4CC(CC(C4)C2)C3)CC1 [compound 1153, reference compound] :: 970
[Se]=C(Nc1ccccc1)NC12CC3CC(CC(C3)C1)C2 [4a, 1-(Adamantan-1-yl)-3-phenylselenourea] :: 55
[Se]=C(NCc1ccccc1)NC12CC3CC(CC(C3)C1)C2 [5a, 1-(Adamantan-1-yl)-3-benzylselenourea] :: 125
[Se]=C(Nc1ccccc1)Nc1ccc(C23CC4CC(CC(C4)C2)C3)cc1 [4e] :: 30

----------
# Assay Text: MTT cytotoxicity on peritoneal macrophages
# Format: cell-based, mice
# Settings: male, C57bl/6j, mouse, primary peritoneal macrophages; 24 h incubation; read-out: MTT CC50 ± SE
Assay Readout: CC50 at 24 h

C[C@@H]1C[C@H]2[C@@H]3CCC4=CC(=O)C=C[C@]4(C)[C@@]3(F)[C@@H](O)C[C@]2(C)[C@@]1(O)C(=O)CO [Dexamethasone, reference compound] :: > 100 µM

Values compiled from paper PMC9501280.
